Tested on: Immunoglobulin G (IgG)
Test: Purification from Effluent II+III, IgG mass balance
Type: binding, human
Settings: 1 ml Eff. II+III, 4° C.
Ends that are not written are not given here.
assay endpoint: Percent Eluted by Fraction, 1M NaCl (%)
Kindly answer with a numeric value in %, unit omitted.

ARWYIH : 0

Q: For the substance IIWLYK , report Percent Eluted by Fraction, 1M NaCl.
A: 9

Q: // fetch Percent Eluted by Fraction, 1M NaCl given entry VIWLVR
A: 6

Q: Supply Percent Eluted by Fraction, 1M NaCl value. Item: RYRIFI
A: 0

* * *

Target: A1PI (Homo sapiens)
Construct: Human plasma is currently the only approved source of therapeutic AlPI
Test: Purification of A1PI from Effluent II+III on peptide column, A1PI mass balance
Assay type: binding
Details: A1PI; 1 ml Eff. II+III, 4° C.; * as in Tables 4, 5 (below detection limit)
Ends that are not written are not given here.
assay endpoint: Mass Protein per Eluate Fraction, Flow (mg)
Supply the numeric figure in mg, leaving out any unit text.

Q: Give Mass Protein per Eluate Fraction, Flow for the following substance: ARWYIH
A: 0.20

Q: For the substance PYWIVR , give its measured Mass Protein per Eluate Fraction, Flow value.
A: 0.55

Q: Check the records and state Mass Protein per Eluate Fraction, Flow for RLWRYG
A: 0.59

Q: Output Mass Protein per Eluate Fraction, Flow of IIWLYK
A: 0.13

Q: Provide measured Mass Protein per Eluate Fraction, Flow value, entry: RAFWYI
A: 0.18

Q: Report measured Mass Protein per Eluate Fraction, Flow; entry is YKFRFW
A: 0.16

Q: In one line, give reported Mass Protein per Eluate Fraction, Flow of the entry RFIYYT .
A: 0.15

Q: Give a short answer stating reported Mass Protein per Eluate Fraction, Flow for LIVHRW .
A: 0.71

Q: State its Mass Protein per Eluate Fraction, Flow for this substance: RYRIFI
A: 0.19

Q: Report Mass Protein per Eluate Fraction, Flow for VIWLVR
A: 0.58

Q: Identify the reported Mass Protein per Eluate Fraction, Flow for the following entry. QYHFWY
A: 0.21

* * *

Molecular target: A1PI (Homo sapiens, UniProt P01009)
Construct: Human plasma is currently the only approved source of therapeutic AlPI
Sequence (P01009 25-418): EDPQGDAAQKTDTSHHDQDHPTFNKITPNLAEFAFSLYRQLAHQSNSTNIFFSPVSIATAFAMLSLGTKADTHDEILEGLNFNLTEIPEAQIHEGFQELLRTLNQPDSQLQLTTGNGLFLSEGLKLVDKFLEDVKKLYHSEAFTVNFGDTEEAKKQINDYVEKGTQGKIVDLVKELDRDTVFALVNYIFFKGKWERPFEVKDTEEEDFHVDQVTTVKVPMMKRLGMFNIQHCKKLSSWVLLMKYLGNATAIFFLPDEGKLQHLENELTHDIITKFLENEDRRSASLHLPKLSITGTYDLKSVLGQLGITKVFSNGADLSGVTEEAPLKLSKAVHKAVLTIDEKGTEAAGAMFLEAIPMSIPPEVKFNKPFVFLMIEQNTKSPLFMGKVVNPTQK
Test: Purification of A1PI from Effluent II+III on peptide column, A1PI mass balance
Format: binding
Conditions: Table 13; A1PI; 1 ml Eff. II+III, 4° C.
Ends that are not written are not given here.
The substances listed here are annotated with their Percent Eluted by Fraction, 2% Acetic Acid.
Quick reminder: number only, in %, skip the unit.

Worked cases, answers included:
A I F L V R: point mutation of VIFLVR, position 1 (AIFLVR) : 60
R I F L V R: point mutation of VIFLVR, position 1 (RIFLVR) : 67
S I F L V R: point mutation of VIFLVR, position 1 (SIFLVR) : 44

Q: Give the measured Percent Eluted by Fraction, 2% Acetic Acid for VIFLVR
A: 70

Q: Give reported Percent Eluted by Fraction, 2% Acetic Acid value for K I F L V R: point mutation of VIFLVR, position 1 (KIFLVR)
A: 59

Q: Report Percent Eluted by Fraction, 2% Acetic Acid, nothing else, for this substance: H I F L V R: point mutation of VIFLVR, position 1 (HIFLVR)
A: 69

* * *

Molecular target: A1PI (Homo sapiens)
Construct: Human plasma is currently the only approved source of therapeutic AlPI
Assay: A1PI binding on peptide-resin column, injection of 1 mg A1PI in equilibration buffer
Conditions: VIFLVR point mutations; 1 mg A1PI, 20° C.
Protocol: Confirmatory binding assays were performed in a column chromatographic format on a microbore HPLC using individual peptide sequences synthesized directly onto the Toyopearl 650 M Chelate resin which had been modified with Totda followed by an alanine residue (A-Totda-Toyopearl), at a final substitution density of 0.1 mmole/g resin. The resin was packed into 0.4×5 cm columns (Thomson, Springfield, Va.) and tested on the Michrom HPLC system (Michrom BioResources, Auburn, Calif.). […]
Ends that are not written are not given here.
Catalogue of % of Total A1PI Eluted by Fraction (Based on Absorbance at 280 nm), 2% Acetic Acid readings, one per entry.
Dear colleague, please return just the value in %, with no unit written.

Recorded results for 2 substances are shown here.
Ac-V I F L V R: N-terminal acetylated sequence Ac-VIFLVR (listed under SEQ ID No:37) (not fully specified (C-terminus); printed as Ac-VIFLVR) : 0
VIFLVA: point mutation of VIFLVR, position 6, C-terminal Arg replaced with Ala : 8

# context switch: different substance, same % of Total A1PI Eluted by Fraction (Based on Absorbance at 280 nm), 2% Acetic Acid
Q: Look up % of Total A1PI Eluted by Fraction (Based on Absorbance at 280 nm), 2% Acetic Acid of K I F L V R: point mutation of VIFLVR, position 1 (KIFLVR) and report it.
A: 100
